Data provenance is ChEMBL document CHEMBL1201862.

Catalogue of molecules with associated GI50
# Test system: MOLT-4
# test-protocol: NCI tumour cell line growth inhibition, 48 h
Active and inactive are the calls of the source. Cut-off read from the data, not from the text of the source: active = GI50 up to about 1.1 µM and inactive = higher.

{"molecule": "CCCNC(=S)N/N=C1\\C(=O)Nc2ccccc21", "target-under-test": "MOLT-4", "GI50": "> 100 µM (inactive)"}
{"molecule": "Cc1cccc2c(=O)c3c(O)cc4c(c3n(C)c12)C=CC(C)(C)O4", "target-under-test": "MOLT-4", "GI50": "29.1 µM (inactive)"}
{"molecule": "C=C1[C@H](OCC(C)C)[C@@H](OC(=O)C(C)CC)[C@@H](O)C(C)(C)/C=C/[C@H](C)C(=O)[C@@]2(O)C[C@H](C)[C@H](O)[C@@H]2[C@H]1OC(=O)C(C)CC (some centres undefined)", "target-under-test": "MOLT-4", "GI50": "2 µM (inactive)"}

Query molecule follows.
// recorded GI50 for `CCC(=O)NCCc1c2c3c(ccnc3c3ncsc13)-c1ccccc1N2` : 1.4 µM (inactive)
